- Test system: IGROV-1
- RUN_DESCRIPTION: Growth inhibition of human IGROV-1 cells at 10 uM incubated for 48 hrs by sulforhodamine B assay relative to control
- Type: functional
- STUDY_CONDITIONS: read-out: GI
QUANTITY_MEASURED: inhibition of growth at 10 µM (%)

[[record]]
entry_smiles = "Cc1cc(NCC(=O)Nc2ccc(-c3nc4ccccc4s3)cc2)no1"
quantity_measured = "inhibition of growth at 10 µM"
data_value = 11.5

[[record]]
entry_smiles = "O=C(CN(c1ccccc1)c1ccccc1)Nc1ccc(-c2nc3ccccc3s2)cc1"
quantity_measured = "inhibition of growth at 10 µM"
data_value = 4.71

[[record]]
entry_smiles = "Cc1cc(C)n(CC(=O)Nc2ccc(-c3nc4ccccc4s3)cc2)n1"
quantity_measured = "inhibition of growth at 10 µM"
data_value = 2.57

[[record]]
entry_smiles = "O=C(Cn1cnc2ccccc21)Nc1ccc(-c2nc3ccccc3s2)cc1"
quantity_measured = "inhibition of growth at 10 µM"
data_value = 35.1

[[record]]
entry_smiles = "CN1CCN(CC(=O)Nc2ccc(-c3nc4ccccc4s3)cc2)CC1"
quantity_measured = "inhibition of growth at 10 µM"
data_value = 19.4

[[record]]
entry_smiles = "O=C(CNC1CCCCC1)Nc1ccc(-c2nc3ccccc3s2)cc1"
quantity_measured = "inhibition of growth at 10 µM"
data_value = -0.35

[[record]]
entry_smiles = "O=C(CN1CCCCC1)Nc1ccc(-c2nc3ccccc3s2)cc1"
quantity_measured = "inhibition of growth at 10 µM"
data_value = -10.3

[[record]]
entry_smiles = "O=C(CNc1nnc(-c2ccc(Cl)cc2)o1)Nc1ccc(-c2nc3ccccc3s2)cc1"
quantity_measured = "inhibition of growth at 10 µM"
data_value = 5.85

[[record]]
entry_smiles = "NS(=O)(=O)c1ccc(NCC(=O)Nc2ccc(-c3nc4ccccc4s3)cc2)cc1"
quantity_measured = "inhibition of growth at 10 µM"
data_value = 41

[[record]]
entry_smiles = "O=C(Cn1nnc2ccccc21)Nc1ccc(-c2nc3ccccc3s2)cc1"
quantity_measured = "inhibition of growth at 10 µM"
data_value = 2.46

[[record]]
entry_smiles = "O=C(CN1C(=O)C(=O)c2ccccc21)Nc1ccc(-c2nc3ccccc3s2)cc1"
quantity_measured = "inhibition of growth at 10 µM"
data_value = -0.62

[[record]]
entry_smiles = "O=C(Cn1ccnc1)Nc1ccc(-c2nc3ccccc3s2)cc1"
quantity_measured = "inhibition of growth at 10 µM"
data_value = 31.1

[[record]]
entry_smiles = "O=C(CNc1nc2ccccc2s1)Nc1ccc(-c2nc3ccccc3s2)cc1"
quantity_measured = "inhibition of growth at 10 µM"
data_value = 33.4

[[record]]
entry_smiles = "O=C(CNCc1ccccc1)Nc1ccc(-c2nc3ccccc3s2)cc1"
quantity_measured = "inhibition of growth at 10 µM"
data_value = -2.9

[[record]]
entry_smiles = "O=C(CNc1nc(-c2ccc(Cl)cc2)cs1)Nc1ccc(-c2nc3ccccc3s2)cc1"
quantity_measured = "inhibition of growth at 10 µM"
data_value = 40.9

[[record]]
entry_smiles = "O=C(CNc1c(Cl)cccc1Cl)Nc1ccc(-c2nc3ccccc3s2)cc1"
quantity_measured = "inhibition of growth at 10 µM"
data_value = 50.7

[[record]]
entry_smiles = "COc1ccc(NCC(=O)Nc2ccc(-c3nc4ccccc4s3)cc2)cc1"
quantity_measured = "inhibition of growth at 10 µM"
data_value = 7.74

[[record]]
entry_smiles = "O=C(Cn1cncn1)Nc1ccc(-c2nc3ccccc3s2)cc1"
quantity_measured = "inhibition of growth at 10 µM"
data_value = 7.64

[[record]]
entry_smiles = "O=C(CNc1ccc(Cl)cc1)Nc1ccc(-c2nc3ccccc3s2)cc1"
quantity_measured = "inhibition of growth at 10 µM"
data_value = 65.7

[[record]]
entry_smiles = "O=C(Cn1c2ccccc2c2ccccc21)Nc1ccc(-c2nc3ccccc3s2)cc1"
quantity_measured = "inhibition of growth at 10 µM"
data_value = 13.4

[[record]]
entry_smiles = "Cc1ccc(NCC(=O)Nc2ccc(-c3nc4ccccc4s3)cc2)cc1"
quantity_measured = "inhibition of growth at 10 µM"
data_value = 7.63

[[record]]
entry_smiles = "O=C(CN1CCOCC1)Nc1ccc(-c2nc3ccccc3s2)cc1"
quantity_measured = "inhibition of growth at 10 µM"
data_value = -5.69

[[record]]
entry_smiles = "O=C(CNc1ccccc1)Nc1ccc(-c2nc3ccccc3s2)cc1"
quantity_measured = "inhibition of growth at 10 µM"
data_value = 16.1

[[record]]
entry_smiles = "O=C(Cn1ccc2ccccc21)Nc1ccc(-c2nc3ccccc3s2)cc1"
quantity_measured = "inhibition of growth at 10 µM"
data_value = 26.2

